Test system: MCF7 breast
Experiment: NCI-60 one-dose screen, 48 h
Details: 10 µM
The panel holds about 83,000 compounds, 20% with a hit somewhere; the sample as a whole holds those more often. Calls of active or inactive are those of the source. How the source made its calls: active means growth percent below 10; inactive means the rest.
Answer with one of the outcomes 1 for active, 0 for inactive

{"compound": "O=C1/C(=C/c2cccs2)CCC/C1=C\\c1cccs1", "assigned_class": 0}

Incoming: What was the test verdict on CCOC(=O)CNC(=O)Nc1ccc(Oc2ccc(NC(=O)NCC(=O)OCC)cc2)cc1 ?
Outgoing: 0

Incoming: What was the test verdict on COc1cccc(C(=O)N(c2ccc(F)c(F)c2)C(C(=O)NC(C)(C)C)c2cc3c(C)cc(C)cc3nc2Cl)c1 (stereo not given) ?
Outgoing: 0

Incoming: What was the test verdict on O=C1CC(c2cccc(-c3cccnc3)c2)=Nc2ccc(Br)cc2N1 ?
Outgoing: 0

Incoming: What was the test verdict on CCOC(=O)c1cc2c(n1Cc1ccccc1)-c1oncc1CC2 ?
Outgoing: 0

Incoming: What was the test verdict on CCCCCCCCCCCC(c1ccccc1)N(C)C (stereo not given) ?
Outgoing: 0

Incoming: What was the test verdict on COc1cc(CSc2nc3ccc(Cl)cc3c(=O)n2Cc2ccccc2)cc(OC)c1OC ?
Outgoing: 0

Incoming: What was the test verdict on CC(C)c1[nH]nc2c(NCc3ccc(-c4ccccn4)cc3)nc(SCCN)nc12 ?
Outgoing: 1

Incoming: What was the test verdict on C=CCNCCCN1C(=O)c2ccc3c4c(ccc(c24)C1=O)C(=O)N(CCCNCC=C)C3=O ?
Outgoing: 1

Incoming: What was the test verdict on CCOC(=S)Sc1ccc([N+](=O)[O-])cc1[N+](=O)[O-] ?
Outgoing: 0
